Can you tell me fold induction at 1 µM for the items I'm about to list?
- Test system: T-cell
- experiment-description: IL-2 secretion from T-cells co-stimulated with anti-CD3 and anti-CD28 antibody (Biological Example 2)
- Format: cell-based, human
- experimental-parameters: Homo sapiens, T-cell; 1 μM Cbl-b inhibitor; fold change over baseline (anti-CD3/anti-CD28 stimulated T-cells without inhibitor); read-out: IL-2 secretion Anti-CD3/Anti-CD28 stimulation

[
  {
    "molecule": "Cn1cnnc1CC1(c2cccc(N3Cc4c(cc(N5CC(C(F)F)C5)nc4C4CC4)C3=O)c2)COC1",
    "target-or-test-system": "T-cell",
    "measured-endpoint": "fold induction at 1 µM",
    "result-value": "5 to 7.5"
  },
  {
    "molecule": "CC1CN(c2cc3c(c(C(F)(F)F)c2)CN(c2cccc(C4(Cc5nncn5C)COC4)c2)C3=O)C1",
    "target-or-test-system": "T-cell",
    "measured-endpoint": "fold induction at 1 µM",
    "result-value": "2.51 to 5"
  },
  {
    "molecule": "CN1CC2CC(C1)N2c1cc(C(=O)Nc2cccc(C3(Cc4nncn4C)COC3)c2)nc(C2CC2)n1",
    "target-or-test-system": "T-cell",
    "measured-endpoint": "fold induction at 1 µM",
    "result-value": "> 7.5"
  },
  {
    "molecule": "Cn1cnnc1CC1(c2cccc(N3Cc4c(cc(CN5CCc6ccccc6C5)cc4C(F)(F)F)C3=O)c2)COC1",
    "target-or-test-system": "T-cell",
    "measured-endpoint": "fold induction at 1 µM",
    "result-value": "> 7.5"
  },
  {
    "molecule": "Cn1cnnc1[C@H](F)C1(c2cccc(N3Cc4c(cc(CN5[C@@H]6CC[C@H]5C[C@@H](F)C6)cc4C(F)(F)F)C3=O)c2)COC1 [Example 672b]",
    "target-or-test-system": "T-cell",
    "measured-endpoint": "fold induction at 1 µM",
    "result-value": "> 7.5"
  },
  {
    "molecule": "Cc1cc(C(=O)Nc2cccc(C3(Cc4nncn4C)CCC3)c2)nc(C2CC2)n1",
    "target-or-test-system": "T-cell",
    "measured-endpoint": "fold induction at 1 µM",
    "result-value": "> 7.5"
  }
]

Now take the following molecule into account.
Return fold induction at 1 µM (reported value) for this molecule: `Cn1cnnc1CC1(c2cccc(N3Cc4c(cc(C5=CN6CCC5CC6)cc4C(F)(F)F)C3=O)c2)COC1`
2.51 to 5

---

- Tested on: primary human NK cells
- experiment-description: NK cell activation assessed by cytokine secretion (coculture with K562 NucRed target cells)
- Assay type: cell-based
- experimental-parameters: K562, 5:1 E/T, 1 μM, read-out: IFNγ secretion
measured-endpoint: fold induction at 1 µM

Solved cases (3 shown):
[
  {
    "molecule": "Cn1cnnc1C(F)(F)[C@](C)(F)c1cccc(N2Cc3c(cc(CN4CCC(F)(F)C4)cc3C(F)(F)F)C2=O)c1",
    "target-or-test-system": "primary human NK cells",
    "fold induction at 1 µM": "1.01 to 2"
  },
  {
    "molecule": "Cn1cnnc1C(F)(F)[C@](C)(F)c1cccc(N2Cc3c(cccc3C(F)(F)F)C2=O)c1 [Compound 296a]",
    "target-or-test-system": "primary human NK cells",
    "fold induction at 1 µM": "< 1"
  },
  {
    "molecule": "C[C@H](Cc1nncn1C)c1cccc(N2Cc3c(cc(CN4CC[C@H](F)C4)cc3C(F)(F)F)C2=O)c1",
    "target-or-test-system": "primary human NK cells",
    "fold induction at 1 µM": "2.01 to 5"
  }
]

List fold induction at 1 µM for every entry below, keeping the order given.
1. C[C@H](Cc1nncn1C)c1cccc(N2Cc3c(cccc3C(F)(F)F)C2=O)c1 [Compound 255a]
2. Cn1cnnc1C(F)(F)[C@](C)(F)c1cccc(N2Cc3c(cc(CN4CC[C@H](F)C4)cc3C(F)(F)F)C2=O)c1

["1.01 to 2", "> 5"]
